- Test system: human hepatocytes
- TEST NAME: Evaluation of hepatocyte clearance (metabolic stability)
- Type: in vitro ADME
- ASSAY CONTEXT: 1 μM test compound, 5% human serum, Table 3
READOUT TYPE: Qh [%] (%)

>  <MOL>
N#Cc1cc(-n2c(SCc3c(F)cc(F)cc3F)nc3ncsc3c2=O)ccc1O

>  <Qh [%] / %>
48

$$$$
>  <MOL>
O=c1c2scnc2nc(SCc2ccc(C(F)(F)F)cc2)n1-c1ccc(O)nn1

>  <Qh [%] / %>
40

$$$$
>  <MOL>
O=c1c2scnc2nc(SCc2ccc(C(F)(F)F)cc2)n1-c1cnc(O)c(F)c1

>  <Qh [%] / %>
15

$$$$
>  <MOL>
O=c1c2scnc2nc(SCc2ccc(Cl)cc2F)n1-c1cc(F)c(O)c(F)c1

>  <Qh [%] / %>
53

$$$$
>  <MOL>
O=c1c2scnc2nc(SCc2c(F)cc(F)cc2F)n1-c1ncc(O)cn1

>  <Qh [%] / %>
27

$$$$
>  <MOL>
O=c1c2scnc2nc(SCc2c(F)ccc(F)c2F)n1-c1cnc(O)c(F)c1

>  <Qh [%] / %>
23

$$$$

(I) Cc1cc(F)ccc1CSc1nc2ncsc2c(=O)n1-c1ccc(O)nc1
(II) Cc1cc(F)ccc1CSc1nc2ncsc2c(=O)n1-c1cnc(O)nc1
(III) O=c1c2scnc2nc(SCc2ccc(Cl)cc2F)n1-c1cnc(O)nc1
Q. Order the records by Qh [%], with each subsequent value no larger than the one before. List labels; respect the requested ordering.
A. I, II, III
(I: 54%, II: 19%, III: 13%)

// data source = patent US20240327429A1
